Entry source: PubChem BioAssay (NCI)

- Test system: MDA-MB-231 breast
- Experimental Details: NCI tumour cell line growth inhibition, 48 h
Experimental Endpoint: TGI

CNc1ccc(Cl)cc1C(=O)N1CCC[C@H]1CO = > 100 µM
N#Cc1cc2c(=S)[nH]c(=S)[nH]c2nc1SCc1ccccc1 = 87.4 µM
O=C1C2CCCCC2C(=O)N1n1c(Cc2ccccc2)n[nH]c1=O (stereo unspecified) = > 100 µM
Nc1nc(N)c2cc(S(=O)(=O)c3ccccc3)ccc2n1 = > 100 µM
Cc1ccc(Nn2c(SCC(=O)Nc3nc(-c4ccccc4)cs3)nc(C)c2C)cc1 = > 100 µM
Cc1ccc(S(=O)(=O)Nc2cc(=O)[nH]c3c2CCC3)cc1 = > 100 µM
COc1ccc2c3c1OC1C4(CCC5C(C2)N(CC2CC2)CCC351)OCCO4 (stereo unspecified) = > 100 µM
c1ccc(C[N+]23C(CC[C@H]2c2ccccc2)CC[C@H]3c2ccccc2)cc1 (stereo partly specified) = > 100 µM
Cc1nc2sc(C(=O)Nc3cccc(Cl)c3C)c(N)c2cc1C(O)c1ccccc1 (stereo unspecified) = 6.95 µM
COc1ccc(OC)c2c1ccc1c(C)c3ccccc3c(C)c12 = > 100 µM
NC(=O)/C=C/c1c[nH]c2nccnc12 = 31.6 µM

###

- Test system: SK-OV-3 ovarian
- Experimental Details: NCI tumour cell line growth inhibition, 48 h; in the data active = GI50 below about 0.43 µM; inactive = the rest
Outcomes: yes (1) = active, no (0) = inactive

COC(=O)[C@]12CC[C@@H](C)[C@H](C)[C@@H]1C1=CC[C@@H]3[C@@]4(C)C(C=O)=C[C@@](C)(COC(=O)c5ccco5)C4=CC[C@@]3(C)[C@]1(C)CC2 = no (0)
NC(N)=N/N=C/c1c(-c2cccs2)nc2n1CCS2 = no (0)
CC1(C)CC(C(=O)OCCCCCCCCCCC[P+](c2ccccc2)(c2ccccc2)c2ccccc2)C(C)(C)N1O (stereo unspecified) = yes (1)
COc1cc(NC(=O)c2cc3ccccc3cc2O)c(OC)cc1Cl = no (0)
CS(=O)(=O)Nc1cccc(-c2ccc3ncnc(Nc4cncc(Cl)c4)c3c2)c1 = no (0)
CCN(CC)CCC(CNc1c(C)cnc2cc(Cl)ccc12)c1ccc(Cl)c(Cl)c1 (stereo unspecified) = no (0)
Cc1cc(O)cc(-c2nn(C)cc2-c2cc(N3CCOCC3)nc(-c3cccnc3)n2)c1 = no (0)
CCC1C[N+]2=C(c3cc(OC)c(OC)cc3CC2)c2c1cc1n2CCc2cc(OC)c(OC)cc2-1 (stereo unspecified) = no (0)
CCN(CC)CCOc1ccccc1-n1c(C)ccc1-c1ccccc1 = no (0)
Fc1cccc(-c2nc(-c3c[nH]c4ncccc34)cs2)c1 = no (0)
Cc1ccc(Nn2c(SCC(=O)Nc3nc(-c4ccccc4)cs3)nc(C)c2C)cc1 = no (0)

###

Quick reference for TGI among some molecules
- Tested on: SK-MEL-5 melanoma
- Experimental Details: NCI tumour cell line growth inhibition, 48 h
Experimental Endpoint: TGI (µM)

Cc1ccc(Nn2c(SCC(=O)Nc3nc(-c4ccccc4)cs3)nc(C)c2C)cc1 = 5.72
c1ccc(C[N+]23C(CC[C@H]2c2ccccc2)CC[C@H]3c2ccccc2)cc1 (stereo not given in full) = 19.1

###

- Test system: HCC-2998 colon
- Experimental Details: NCI tumour cell line growth inhibition, 48 h
Catalogue of TGI values
Experimental Endpoint: TGI (µM)

CCOC(=O)/C=C/C1=C(Br)[C@@]2(C)CC[C@@H]3c4ccc(O)cc4CC[C@H]3[C@@H]2C1 = 28.8
CN1C(CC(O)c2ccccc2)CCCC1CC(O)(c1ccccc1)c1ccccc1 (centres undefined) = 37.8
O=C1c2ccccc2-c2c1c1ccc3ccccc3c1n2-c1ccccc1 = 94.4
CC(=O)O[C@H]1C(=O)[C@@]2(C)[C@H]([C@H](OC(=O)c3ccccc3)[C@]3(O)C[C@H](OC(=O)[C@H](O)[C@@H](NC(=O)C(C)(O)C(C)O)c4ccccc4)C(C)=C1C3(C)C)[C@]1(OC(C)=O)CO[C@@H]1C[C@@H]2O (some centres undefined) = 0.743

###

- System: UO-31 renal
- Experimental Details: NCI tumour cell line growth inhibition, 48 h
Experimental Endpoint: GI50

C=CC(=O)OCCCS(=O)(=O)[O-].C=CC(=O)OCCCS(=O)(=O)[O-].NC1CCCCC1N.[Pt+4] = > 25 µM
COc1ccc(C#CC2=C(Br)C(=O)OC2)cc1 = 16.9 µM
Cc1cc(O)cc(-c2nn(C)cc2-c2cc(N3CCOCC3)nc(-c3cccnc3)n2)c1 = 3.44 µM
Nc1nc(N)c2cc(S(=O)(=O)c3ccccc3)ccc2n1 = 13.3 µM
O=C(/C=C/c1cc(O)ccc1O)c1ccc(Cl)cc1 = 96.7 µM
NC1=CC(=O)C(=O)c2ccccc21 = 11.5 µM

###

- Tested on: NCI-H23 lung
- Experimental Details: NCI tumour cell line growth inhibition, 48 h
Experimental Endpoint: TGI

COc1cc2ccnc(-c3n[nH]c4cc(OC)c(OC)cc34)c2cc1OC = > 100 µM
CN1CCC(n2cnc(-c3ccc(F)cc3)c2-c2ccnc(Nc3ccccc3)n2)CC1 = > 25 µM
COc1c(OC)c(OC)c2c(=O)c(OC)c(-c3ccc4c(c3)OCO4)oc2c1OC = > 100 µM
C=CC(=O)OCCCS(=O)(=O)[O-].C=CC(=O)OCCCS(=O)(=O)[O-].NC1CCCCC1N.[Pt+4] = > 25 µM
CC/C(=N/O)C(C)C(=O)CCC(=O)Nc1ccc(Cl)cc1 (stereo not given) = > 100 µM

###

- System: SF-539 CNS
- Experimental Details: NCI tumour cell line growth inhibition, 48 h
Experimental Endpoint: TGI

CN(CCCN1CCCC1)CCCN(C)C(=O)Cc1ccc(Cl)c(Cl)c1 = > 53.2 µM
C/C=C/C(O)P(=O)(OC)OC (stereo unspecified) = 0.74 µM
O=C1CNc2cc(N3CCCCC3)ccc2N1 = > 100 µM
C=CCc1cccc(/C(O)=C/C(=O)/C=C/c2ccccc2Cl)c1O = 72 µM
O=C(c1nc2ccc(Cl)cc2[nH]c1=O)C(O)c1cccc([N+](=O)[O-])c1 (stereo unspecified) = > 100 µM
O=C(Cc1ccccc1)Nc1nc2ccc(Cl)cc2c2nc(-c3ccco3)nn12 = > 60.5 µM

###

- Test system: DLD-1 colon
- Experimental Details: NCI tumour cell line growth inhibition, 48 h
Experimental Endpoint: TGI

COc1cc(CO)cc2c1[nH]c1ccccc12 = > 25 µM
O=C(Cc1ccccc1)N/N=C(/c1nc2ccc([N+](=O)[O-])cc2[nH]c1=O)C(O)c1ccco1 (stereo unspecified) = > 100 µM
FC(F)(F)c1nc2c(ccc3[nH]c4c(-c5ccccc5)nccc4c32)[nH]1 = > 100 µM
CNC(=O)NCCCCC(NC(=O)OCc1ccccc1)C(=O)OCc1ccccc1 (stereo unspecified) = > 100 µM
CC1=C(C(=O)NCc2ccccc2)C(c2ccc(N(C)C)cc2)C(C(=O)NCc2ccccc2)=C(C)N1 = > 100 µM
CC(C)(C)[Si](C)(C)O/N=C\c1cccc(O[Si](C)(C)C(C)(C)C)c1 = 33.6 µM
COc1ccccc1NC(=O)C1=C(C)NC(C)=C(C(=O)Nc2ccccc2OC)C1c1ccc(C2C(C(=O)Nc3ccccc3OC)=C(C)NC(C)=C2C(=O)Nc2ccccc2OC)cc1 = 2.66 µM
CC(=O)NC(CCCCN(Cc1ccccc1)C(=O)N(C)N=O)C(=O)NCc1ccccc1 (stereo unspecified) = > 100 µM
COc1ccc(/C=N/NC(=O)CSc2nc(-c3ccccc3)c(-c3ccccc3)[nH]2)cc1OC = > 100 µM
O=C(/C=C/c1ccco1)N1CCN(Cc2ccccc2)CC1 = > 100 µM
COC(=O)CCC(=O)Nc1cc(C)ccc1C = > 100 µM

###

- Test system: 786-0 renal
- Experimental Details: NCI tumour cell line growth inhibition, 48 h
Experimental Endpoint: TGI

FC(F)(F)c1nc2c(ccc3[nH]c4c(-c5ccccc5)nccc4c32)[nH]1 = > 100 µM
CCSc1nc(N)c(C#N)c(-c2ccc(OC)c(OC)c2)c1C#N = 49.3 µM
N#Cc1n[nH]n(-c2ccccc2)c1=O = > 100 µM
Cc1cccc(/C=N/N=C(\N)NO)n1 = > 100 µM
C=CCc1cccc(/C(O)=C/C(=O)/C=C/c2ccccc2Cl)c1O = > 71.6 µM
COc1ccc(/C=N/C2=NNC(C)(c3ccccc3O)N2C(Cc2c[nH]c3ccccc23)C(=O)O)cc1 (stereo not drawn) = 13 µM
CCCCCC/C=C\CCCCCCCCCc1cccc(OC)c1O = > 100 µM
N#CCc1nc(-c2cc3ccc(O)cc3oc2=O)cs1 = > 100 µM
COc1ccc(C2C(C(=O)O)=C(CO)Oc3cc4c(cc32)OCO4)c(OC)c1 (stereo not drawn) = > 100 µM
CC1=C(c2ccccc2)CON(c2ccccc2)C1 = > 100 µM
CNC(=O)OCC1=C(COC(=O)NC)CN(c2ccc(OC)cc2)C1 = > 100 µM
COC(=O)C1=C(C(=O)OC)N(c2ccncc2)C(c2ccco2)=CC1c1ccccc1[N+](=O)[O-] (stereo not drawn) = 2.94 µM
CNC(=O)NCCCCC(NC(=O)OCc1ccccc1)C(=O)OCc1ccccc1 (stereo not drawn) = 32.2 µM
O=C1c2ccccc2C(=O)c2c1sc1nc3ccccc3n21 = 4.46 µM
COc1ccccc1C(=O)Nc1ccc(Cl)c(C(=O)OC(C)C)c1 = > 100 µM
O=C(O)c1ccc(C2=Nc3cccc4cccc(c34)N2)cc1 = > 100 µM
CN(C)c1cccc2c(S(=O)(=O)NCCCNCCN)cccc12 = > 100 µM
O=C(/C=C/c1ccc(O)c(O)c1)O[C@H]1CCCC[C@@H]1OC(=O)/C=C/c1ccc(O)c(O)c1 = 46 µM
COc1ccccc1N1CCN(CC(O)Cn2c(=O)c3c(OC)nc(C)cc3c(=O)n2-c2ccccc2)CC1 (stereo not drawn) = 76.9 µM
O=C(NN1CCCCC1)c1cc2cc(CCl)ccc2oc1=O = 32 µM
C/C=C/C(O)P(=O)(OC)OC (stereo not drawn) = 0.36 µM
COc1ccc(OC)c2c1ccc1c(C)c3ccccc3c(C)c12 = > 100 µM
COc1cc2c(cc1OC)C(Cc1cc(Br)c(OC)c(OC)c1)=[N+](C)CC2 = > 100 µM
